melting point reference

- compound: "CCc1ccc(Cc2cc(Br)ccc2O[C@@H]2S[C@H](CO)[C@@H](O)[C@H](O)[C@H]2O)cc1 [Compound 10]"
  data value: "172 to 173.5 °C"
- compound: "CCOc1ccc(Cc2ccccc2O[C@@H]2S[C@H](CO)[C@@H](O)[C@H](O)[C@H]2O)cc1 [Compound 5]"
  data value: "182 to 183.5 °C"

In the following, a different compound is considered.
Lookup: Query (compound): COc1ccc(Cc2ccccc2O[C@@H]2S[C@H](CO)[C@@H](O)[C@H](O)[C@H]2O)cc1 [Compound 4] ; field requested: melting point
Found: 166 to 167.5 °C
